# assay procedure: Single ascending dose study, pharmacokinetics
# Format: in vivo, human
# condition info: human, plasma, po, 40 mg, Normal healthy volunteer, 40 mg oral, Fed; read-out: t1/2 (converted)

>  <smiles repr>
Cc1cc(C)c(-c2ccc(NC(=O)[C@H](Cc3ccc(C(=O)NCCS(=O)(=O)O)cc3)c3ccc(-c4ccc(C(C)(C)C)cc4)cc3)cc2)c(C)c1

>  <half-life (h)>
53.8

$$$$

====

# assay procedure: Pharmacokinetics after oral and IV administration
# Type: in vivo
# condition info: plasma; Rat; IV Dose 1 mg/kg, PO Dose 3 mg/kg

>  <compound>
Cc1cc(C)c(-c2ccc(NC(=O)[C@H](Cc3ccc(C(=O)NCCS(=O)(=O)O)cc3)c3ccc(-c4ccc(C(C)(C)C)cc4)cc3)cc2)c(C)c1 [IIIa]

>  <value units>
h

>  <half-life>
10.9

$$$$
